Protein target, amino acids: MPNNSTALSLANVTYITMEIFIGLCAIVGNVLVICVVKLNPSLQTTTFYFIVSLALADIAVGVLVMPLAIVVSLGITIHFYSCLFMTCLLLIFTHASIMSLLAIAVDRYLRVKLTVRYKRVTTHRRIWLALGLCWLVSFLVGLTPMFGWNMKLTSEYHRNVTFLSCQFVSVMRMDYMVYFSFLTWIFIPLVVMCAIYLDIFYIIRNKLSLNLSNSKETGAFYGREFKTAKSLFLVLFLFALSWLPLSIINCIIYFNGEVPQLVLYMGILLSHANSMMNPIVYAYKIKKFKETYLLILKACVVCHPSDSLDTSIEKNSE
pKi: −log10 of the molar value.
assayMetric: pKi

The molecule O=C(NCc1ccc(Cl)cc1)C(=O)c1cc2ccccc2o1 showed pKi equal to < 5.00

* * *

- system: human A2B AR (Homo sapiens, UniProt P29275)
- Construct: K. N. Klotz, Wurzburg University (gift)
- Sequence (P29275 whole entry): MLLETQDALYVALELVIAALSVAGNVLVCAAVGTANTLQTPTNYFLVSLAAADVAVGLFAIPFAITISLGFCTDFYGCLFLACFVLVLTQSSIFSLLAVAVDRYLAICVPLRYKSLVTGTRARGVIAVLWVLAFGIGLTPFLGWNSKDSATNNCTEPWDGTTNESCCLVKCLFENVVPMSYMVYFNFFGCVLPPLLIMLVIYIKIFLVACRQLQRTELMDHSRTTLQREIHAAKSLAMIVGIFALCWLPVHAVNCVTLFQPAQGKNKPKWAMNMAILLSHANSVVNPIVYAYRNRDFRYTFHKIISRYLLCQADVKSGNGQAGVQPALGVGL
- assayComment: Measurement of cyclic AMP levels in A2B AR CHO cells
- recordedConditions: compound 1 nM-10 µM in the presence of NECA 100 nM; human A2B AR-transfected CHO cells; read-out: EC50, positive allosteric modulation of A2B AR (NECA-mediated cAMP accumulation)
assayMetric: EC50 (nM)
Write it as a number; the unit nM goes unstated.

The compound O=C(NCc1ccc(Cl)cc1)C(=O)c1cc2ccccc2o1 showed EC50 equal to 636

* * *

In this section, each of the compounds is paired with its reported melting point.

Below, each entry is followed by its recorded melting point result.
O=C(NCc1ccccc1)C(=O)c1cn(CCc2ccccc2)c2ccccc12
83 to 85 °C
Cn1cc(C(=O)C(=O)NCc2ccccc2)c2ccccc21
147 to 149 °C

The compound O=C(NCc1ccccc1)C(=O)c1csc2ccccc12 [Compound 8, N-Benzyl-2-(benzothien-3-yl)glyoxylamide] showed melting point equal to 87 to 89 °C

The compound O=C(Nc1ccccc1)C(=O)c1cn(CCc2ccccc2)c2ccccc12 showed melting point equal to 139 to 140 °C

The compound Cn1cc(C(=O)C(=O)Nc2ccccc2)c2ccccc21 showed melting point equal to 167 to 169 °C

The compound O=C(NCc1ccccc1)C(=O)c1cccs1 [Compound 10, N-Benzyl-2-(thien-2-yl)glyoxylamide] showed melting point equal to 95.6 to 95.8 °C

The compound Cn1cc(C(=O)C(=O)c2ccccc2)c2ccccc21 showed melting point equal to 88 to 90 °C

The compound O=C(NCc1ccc(Cl)cc1)C(=O)c1cc2ccccc2o1 showed melting point equal to 137 to 139 °C

* * *

- system: human A2A adenosine receptors (Homo sapiens, UniProt P29274)
- Sequence (P29274 whole entry): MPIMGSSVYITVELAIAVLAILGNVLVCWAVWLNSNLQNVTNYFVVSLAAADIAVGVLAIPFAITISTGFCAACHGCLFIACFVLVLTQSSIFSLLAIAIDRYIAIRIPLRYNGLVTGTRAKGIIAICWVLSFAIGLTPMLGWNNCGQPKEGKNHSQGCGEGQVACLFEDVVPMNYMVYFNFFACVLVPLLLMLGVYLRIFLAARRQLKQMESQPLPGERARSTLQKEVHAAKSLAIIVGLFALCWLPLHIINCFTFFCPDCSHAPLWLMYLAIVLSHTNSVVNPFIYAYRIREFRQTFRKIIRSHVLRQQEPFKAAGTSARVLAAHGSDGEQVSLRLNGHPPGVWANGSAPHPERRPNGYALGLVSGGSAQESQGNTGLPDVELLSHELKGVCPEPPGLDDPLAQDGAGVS
pKi: −log10 of the molar value.
assayMetric: pKi

The compound O=C(NCc1ccc(Cl)cc1)C(=O)c1cc2ccccc2o1 [Compound 9] showed pKi equal to < 5.00
